Target: T1, human IL-12RB1 overexpressed on 293T cells (Example 2) (human, UniProt P42701 24-662)
T1 construct: whole, on cells
Assay: FACS, hybridoma supernatant, 293T
TEST_READOUT: Fold over parental 293T (fold)
Express your answer in fold, writing the number without its unit.

{"columns": ["BINDER", "TEST_READOUT", "EXPERIMENTAL_RESULT"],
 "data": [
  ["85801_04M04 (antibody, V domains shown, also called 85801_04M04A) VH: QVQLVQSGAEVKKPGASVRVSCKASGYTFTSYYIHWVRQAPGQGLEWMGIINPSGGSTSYAQKFQGRVTMTRDTSTTTVYMELSSLRSEDTAVYYCAKSNWAYAFDIWGQGTMVTVSS VL: SSELTQDPAVSVALGQTVRITCQGDSLSSYYAGWYQQKPGQAPVLVIYGKNNRPSGIPDRFSGSSSEDTASLTITGAQAEDEADYYCNSRDSSDNHLVFGGGTKLTVL", "Fold over parental 293T", 620]
]}

With those in mind, consider the next binder.
Which Fold over parental 293T reading was recorded for the binder 85801_10F19 (antibody, V domains shown, also called 85801_10F19A) VH: QVQLVQSGAEVRKPGASVKVSCKASGYTFTDYYMHWVRQAPGQGREWMGWINPNSGGTHYAQKFQGRVTMTWDTSISTAYMELSRLRSDDTAVYYCAREGATTVYFDYWGQGTLVTVSS VL: DIQLTQSPSFLSASVGDRVTLTCRASQGINNYLAWYQEKPGKAPNPLIYDASTLQSGVPSRFSGSGSGTEFTLTISSLQPEDFATYYCQQLNMYPYTFGQGTKLEIK ? 41

All figures here come from patent US20250019450A1.
